Target: BAF60A^YLD+SWIB (Homo sapiens)
Test: SPR steady state, amine-coupled protein
MEASURED_PARAMETER: Kd (µM)

COMPOUND	MEASURED_PARAMETER	MEASUREMENT_UNIT	OBSERVED_MEASUREMENT
CC1=C(C(=O)Nc2cccc(C)n2)C(c2cccc(Br)c2)C2=C(CCCC2=O)N1 (centres unmarked)	Kd	µM	8.89
COC(=O)c1ccc(Cn2c(C)nc3cc4c(cc32)OCCO4)cc1	Kd	µM	22.6

* * *

Target: BAF60A^YLD+SWIB (Homo sapiens)
Assay: fluorescence polarization competition with PU.[…]
pIC50: −log10 of the molar value.
MEASURED_PARAMETER: pIC50

MOLECULE	OBSERVED_MEASUREMENT
COC(=O)c1ccc(Cn2c(C)nc3cc4c(cc32)OCCO4)cc1 [PPSC-002]	4.48
CC1=C(C(=O)Nc2cccc(C)n2)C(c2cccc(Br)c2)C2=C(CCCC2=O)N1 (centres unmarked) [PPSC-001]	5.04
